- measured on: TLR7 (Homo sapiens, UniProt Q9NYK1)
- Construct: host or cells: HEK-Blue hTLR7 cells (HEK293-derived SEAP reporter line)
- Sequence (Q9NYK1 27-1049): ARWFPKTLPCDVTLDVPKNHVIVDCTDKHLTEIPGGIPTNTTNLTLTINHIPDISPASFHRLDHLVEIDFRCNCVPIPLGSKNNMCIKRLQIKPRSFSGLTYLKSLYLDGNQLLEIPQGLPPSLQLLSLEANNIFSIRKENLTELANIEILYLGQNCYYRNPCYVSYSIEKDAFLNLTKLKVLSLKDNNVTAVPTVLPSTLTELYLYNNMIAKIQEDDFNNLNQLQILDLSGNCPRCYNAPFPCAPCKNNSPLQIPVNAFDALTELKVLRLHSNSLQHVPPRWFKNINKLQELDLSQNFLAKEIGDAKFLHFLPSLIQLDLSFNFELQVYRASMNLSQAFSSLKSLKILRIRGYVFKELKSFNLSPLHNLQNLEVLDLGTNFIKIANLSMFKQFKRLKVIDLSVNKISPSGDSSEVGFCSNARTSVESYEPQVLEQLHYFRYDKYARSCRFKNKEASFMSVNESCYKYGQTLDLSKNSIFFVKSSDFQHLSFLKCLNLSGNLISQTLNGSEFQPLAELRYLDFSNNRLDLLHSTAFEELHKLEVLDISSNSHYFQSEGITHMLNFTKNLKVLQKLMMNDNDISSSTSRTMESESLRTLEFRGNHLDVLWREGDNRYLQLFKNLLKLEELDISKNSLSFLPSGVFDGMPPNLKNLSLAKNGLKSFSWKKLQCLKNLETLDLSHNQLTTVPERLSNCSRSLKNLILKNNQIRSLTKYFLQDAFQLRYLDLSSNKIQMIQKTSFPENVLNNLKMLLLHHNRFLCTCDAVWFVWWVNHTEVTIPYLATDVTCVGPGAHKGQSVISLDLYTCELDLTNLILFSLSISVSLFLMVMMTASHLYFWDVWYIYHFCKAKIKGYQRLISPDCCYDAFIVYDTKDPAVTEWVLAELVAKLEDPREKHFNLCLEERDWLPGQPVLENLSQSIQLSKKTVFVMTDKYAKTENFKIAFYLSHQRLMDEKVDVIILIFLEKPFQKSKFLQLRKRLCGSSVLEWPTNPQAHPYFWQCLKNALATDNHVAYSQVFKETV
- assay text: Detection of TLR7 activation (HEK-Blue Detection), SEAP reporter
- Format: cell-based
- reported conditions: HEK-Blue hTLR7 cells, 6-16 hrs, absorbance 650 nm; read-out: TLR7(EC50/μM)
value kind: EC50 (µM)

Please review the entries below; each comes with its answer.
{"molecule": "CCCCOc1nc(N)c2nc(O)n(Cc3cn(CCCCCCCCCCCCP(=O)(O)O)nn3)c2n1 [GY103]", "unit tag": "µM", "EC50": 0.86}
{"molecule": "CCCCOc1nc(N)c2nc(O)n(Cc3cn(CCOCCOCCOc4c(OC)cc(/C=C/C(=O)N5CCC=CC5=O)cc4OC)nn3)c2n1 [GY117]", "unit tag": "µM", "EC50": 0.22}

1: C=C(CC(=O)NCCOCCOCCOCCn1cc(Cn2c(O)nc3c(N)nc(OCCCC)nc32)nn1)C(=O)O [GY109]
2: CCCCOc1nc(N)c2nc(O)n(Cc3cn(CCOCCOCCOCCNC(=S)N4CCC(C5CCNc6c(C(N)=O)c(-c7ccc(Oc8ccccc8)cc7)nn65)CC4)nn3)c2n1 (single isomer, unassigned) [GY134]
Query: Between the entries labeled 1 and 2 , whose measured EC50 is lower? Give the label under which the chosen entry appears.
Result: 1
(1: 0.65 µM, 2: 1.99 µM)

====

- measured on: TLR7 (Homo sapiens)
- Construct: host or cells: HEK-Blue hTLR7 cells (HEK293-derived SEAP reporter line)
- assay text: Detection of TLR7 activation (HEK-Blue Detection), SEAP reporter
- Format: cell-based
- reported conditions: HEK-Blue hTLR7 cells, 6-16 hrs, absorbance 650 nm; read-out: TLR7(EC50/μM)
value kind: EC50 (µM)

{"molecule": "CCCCOc1nc(N)c2nc(O)n(Cc3cn(CCOCCOCCOCCNC(=S)N4CCC(C5CCNc6c(C(N)=O)c(-c7ccc(Oc8ccccc8)cc7)nn65)CC4)nn3)c2n1 (single isomer, unassigned) [GY135]", "measured on": "TLR7 (Homo sapiens)", "EC50 (µM)": 9.07}

1: CCCCOc1nc(N)c2nc(O)n(Cc3cn(CCOCCOCCOCCNC(=O)c4cc5c(Oc6ccc(NC(=O)NC7CC7)c(Cl)c6)ccnc5cc4OC)nn3)c2n1
2: C=C(CC(=O)NCCOCCOCCOCCn1cc(Cn2c(O)nc3c(N)nc(OCCCC)nc32)nn1)C(=O)N1CCC(C2CCNc3c(C(N)=O)c(-c4ccc(Oc5ccccc5)cc4)nn32)CC1 (single isomer, unassigned) [GY137]
3: C=C(CC(=O)NCCOCCOCCOCCn1cc(Cn2c(O)nc3c(N)nc(OCCCC)nc32)nn1)C(=O)N1CCC[C@@H](n2nc(-c3ccc(Oc4ccccc4)cc3)c3c(N)ncnc32)C1
4: CCCCOc1nc(N)c2nc(O)n(Cc3cn(CCOCCOCCOCCNC(=S)NC(CCC(=O)NC(CS)C(=O)NCC(=O)O)C(=O)O)nn3)c2n1 (stereo not drawn)
Query: Hi! Can you put these in order of EC50, lowest number first? Give the labels in the order requested.
Result: 4, 1, 2, 3
(4: 0.92 µM, 1: 1.98 µM, 2: 2.92 µM, 3: 4.97 µM)

a: CCCCOc1nc(N)c2nc(O)n(Cc3cn(CCCCN4CCN(CCCNC(=S)N5CCCC(n6nc(-c7ccc(Oc8ccccc8)cc7)c7c(N)ncnc76)C5)CC4)nn3)c2n1 (stereo not drawn)
b: CCCCOc1nc(N)c2nc(O)n(Cc3cn(CCOCCOCCOCC(=O)O)nn3)c2n1
Query: Which of the two gives a bigger number for EC50: a or b ? Give the label under which the chosen entry appears.
Result: a

a: C=C(CC(=O)NCCOCCOCCOCCn1cc(Cn2c(O)nc3c(N)nc(OCCCC)nc32)nn1)C(=O)N1CCC(C2CCNc3c(C(N)=O)c(-c4ccc(Oc5ccccc5)cc4)nn32)CC1 (single isomer, unassigned) [GY132]
b: CCCCOc1nc(N)c2nc(O)n(Cc3cn(CCOCCOCCOCCNC(=O)CCC(=O)Nc4cccc5c4CN(C4CCC(=O)NC4=O)C5=O)nn3)c2n1 (stereo not drawn)
c: CCCCOc1nc(N)c2nc(O)n(Cc3cn(CCOCCOCCOCCNC(=O)c4cc(/N=N/c5ccc(S(=O)(=O)Nc6ccccn6)cc5)ccc4O)nn3)c2n1
d: CCCCOc1nc(N)c2nc(O)n(Cc3cn(CCOCCOCCOCCN)nn3)c2n1
Query: Rank order required: EC50, descending. Give the labels in the order requested.
Result: a, b, c, d
(a: 5.42 µM, b: 3.17 µM, c: 1.87 µM, d: 0.79 µM)

====

- System: murine spleen lymphocytes
- assay text: Cytokine stimulation of murine spleen lymphocytes, ELISA
- Assay type: cell-based
- reported conditions: Mus musculus, Lymphocyte, 24 h, read-out: IFN-gamma EC50 of cytokine stimulating activity
value kind: EC50 (nM)
# unit: nM | format: bare number

Measured EC50, CCCCOc1nc(N)c2nc(O)n(Cc3cn(CCOCCOCCOCCN=C=S)nn3)c2n1 : 2830

====

- System: murine spleen lymphocytes
- assay text: Cytokine stimulation of murine spleen lymphocytes, ELISA
- Format: cell-based
- reported conditions: Lymphocyte; mouse immune cells (spleen lymphocytes), 24 hrs, ELISA; read-out: TNF-alpha EC50 of cytokine stimulating activity
pEC50: −log10 of the molar value.
value kind: pEC50

Please review the entries below; each comes with its answer.
{"compound": "CCCCOc1nc(N)c2nc(O)n(Cc3cn(CCOCCOCCOCCNC(=S)NNCCc4ccccc4)nn3)c2n1", "measured on": "murine spleen lymphocytes", "pEC50": 9.00}
{"compound": "CCCCOc1nc(N)c2nc(O)n(Cc3cn(CCOCCOCCOCCNC(=S)Nc4cc(Nc5nccc(-c6cn(C)c7ccccc67)n5)c(OC)cc4N(C)CCN(C)C)nn3)c2n1", "measured on": "murine spleen lymphocytes", "pEC50": 6.61}
{"compound": "CCCCOc1nc(N)c2nc(O)n(Cc3cn(CCCCN4CCN(CCCNC(=S)N5CCCC(n6nc(-c7ccc(Oc8ccccc8)cc7)c7c(N)ncnc76)C5)CC4)nn3)c2n1 (stereo not drawn)", "measured on": "murine spleen lymphocytes", "pEC50": 7.96}
{"compound": "CCCCOc1nc(N)c2nc(O)n(Cc3cn(CCOCCOCCOCC(=O)NO)nn3)c2n1", "measured on": "murine spleen lymphocytes", "pEC50": 7.24}
{"compound": "CCCCOc1nc(N)c2nc(O)n(Cc3cn(CCOCCOCCOCCNC(=S)N4CCCC(n5nc(-c6ccc(Oc7ccccc7)cc6)c6c(N)ncnc65)C4)nn3)c2n1 (stereo not drawn)", "measured on": "murine spleen lymphocytes", "pEC50": 6.04}

1: CC(C)Cn1cnc2c(N)nc3ccccc3c21 [Imiquimod, reference compound]
2: CCCCOc1nc(N)c2nc(O)n(Cc3cn(CCOCCOCCOCC(=O)O)nn3)c2n1
Query: Between the entries labeled 1 and 2 , whose measured pEC50 is lower? Give the label under which the chosen entry appears.
Result: 1
(1: 5.08, 2: 8.15)
